B1: Azoarcus group I ribozyme (parent)
chain: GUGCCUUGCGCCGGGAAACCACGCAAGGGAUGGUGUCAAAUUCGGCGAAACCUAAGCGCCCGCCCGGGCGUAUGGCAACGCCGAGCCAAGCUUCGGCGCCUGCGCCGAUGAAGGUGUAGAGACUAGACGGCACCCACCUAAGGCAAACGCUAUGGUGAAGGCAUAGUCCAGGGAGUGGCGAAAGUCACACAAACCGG

# Variants of: B1
# ASSAY: reverse-splicing fitness (ratio to wild type); higher = more active; in vitro selection; Mg2+ level not given
Assign yes (1) whenever reverse-splicing fitness does not fall below 0.01; assign no (0) whenever it does.

Example results:
VARIANT DESCRIPTOR	CATEGORY LABEL
C82G A111C A120C A145U C150G C169U U176A	no (0)
A111G A145C C150A U176G	yes (1)
C82U A111U A120G C150U C169U U176C	yes (1)

[in] Item C82U A111G A120C A145U C150A C169A U176A with reverse-splicing fitness of 0.01 or above?
[out] yes (1)

[in] Item C82A A111G A120U A145C C150G C169U U176C with reverse-splicing fitness of 0.01 or above?
[out] no (0)

[in] Item C82G A120C A145U C150G C169G with reverse-splicing fitness of 0.01 or above?
[out] no (0)

[in] Item C82G A111G A120G A145U C150U U176A with reverse-splicing fitness of 0.01 or above?
[out] yes (1)
